Entries annotated with measured pIC50
SYSTEM TESTED: human TLR8 (Homo sapiens)
Sequence (Q9NR97 27-1041): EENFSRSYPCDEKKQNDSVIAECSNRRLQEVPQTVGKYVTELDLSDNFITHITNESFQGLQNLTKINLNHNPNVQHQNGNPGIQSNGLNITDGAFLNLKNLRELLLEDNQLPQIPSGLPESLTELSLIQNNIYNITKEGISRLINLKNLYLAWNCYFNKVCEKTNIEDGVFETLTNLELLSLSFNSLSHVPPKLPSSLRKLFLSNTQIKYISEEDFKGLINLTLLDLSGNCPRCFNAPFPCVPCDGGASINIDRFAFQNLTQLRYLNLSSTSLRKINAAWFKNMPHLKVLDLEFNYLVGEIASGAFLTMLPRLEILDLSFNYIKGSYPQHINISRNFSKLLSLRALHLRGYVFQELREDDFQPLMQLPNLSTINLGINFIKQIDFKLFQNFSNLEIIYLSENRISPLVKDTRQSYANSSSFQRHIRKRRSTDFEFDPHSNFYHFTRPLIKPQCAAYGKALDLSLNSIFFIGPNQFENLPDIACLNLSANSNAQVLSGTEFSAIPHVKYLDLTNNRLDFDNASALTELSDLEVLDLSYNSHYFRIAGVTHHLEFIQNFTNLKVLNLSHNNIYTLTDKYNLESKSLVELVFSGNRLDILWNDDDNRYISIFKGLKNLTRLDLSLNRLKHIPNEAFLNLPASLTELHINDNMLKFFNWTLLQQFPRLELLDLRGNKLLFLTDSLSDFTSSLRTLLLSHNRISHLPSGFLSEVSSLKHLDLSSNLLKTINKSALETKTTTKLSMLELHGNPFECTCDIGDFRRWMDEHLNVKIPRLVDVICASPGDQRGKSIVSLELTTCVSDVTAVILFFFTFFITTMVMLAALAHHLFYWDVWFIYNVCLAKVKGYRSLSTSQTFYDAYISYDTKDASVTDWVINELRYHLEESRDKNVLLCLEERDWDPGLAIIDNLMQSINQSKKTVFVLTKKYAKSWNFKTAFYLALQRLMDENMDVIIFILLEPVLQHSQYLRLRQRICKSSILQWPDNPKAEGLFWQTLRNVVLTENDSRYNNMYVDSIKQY
PROTOCOL: TLR8 inhibition reporter assay (HEK-Blue cells, SEAP reporter, R848 stimulation)
CONDITION DETAILS: HEK-Blue cells overexpressing human TLR8, SEAP reporter, R848 15.9 μM
pIC50: −log10 of the molar value.

// below: answered compounds
>  <COMPOUND>
COc1c(C)c(-c2[nH]c3ccc(C4CCN(CC(C)(C)O)CC4)cc3c2C(C)C)nn2ncnc12 [Example 748]

>  <SYSTEM TESTED>
human TLR8 (Homo sapiens)

>  <pIC50>
> 7.00

$$$$
>  <COMPOUND>
Cc1cn2cc(-c3[nH]c4ccc(C5CCN(Cc6c[nH]cn6)CC5)cc4c3C(C)C)ccc2n1 [Example 936]

>  <SYSTEM TESTED>
human TLR8 (Homo sapiens)

>  <pIC50>
6.00 to 7.00

$$$$
>  <COMPOUND>
CNC(=O)CN1CCC(c2ccc3[nH]c(-c4nn5ncnc5c(OC)c4C)c(C(C)C)c3c2)CC1 [Example 281]

>  <SYSTEM TESTED>
human TLR8 (Homo sapiens)

>  <pIC50>
> 7.00

$$$$
>  <COMPOUND>
COc1cc(-c2[nH]c3ccc(C4CCNCC4)cc3c2C(C)C)cn2ccnc12 [Example 125]

>  <SYSTEM TESTED>
human TLR8 (Homo sapiens)

>  <pIC50>
> 7.00

$$$$

// assay human TLR8 (Homo sapiens), entry CNC(=O)CN1CCC(c2ccc3[nH]c(-c4ccn5ccnc5c4)c(CC(F)F)c3c2)CC1 [Example 446] , pIC50 value = 6.00 to 7.00

// assay human TLR8 (Homo sapiens), entry Cc1cc2nccn2cc1-c1[nH]c2ccc(C3CCN(CCCN(C)C)CC3)cc2c1C(C)C [Example 856] , pIC50 value = > 7.00

// assay human TLR8 (Homo sapiens), entry CC(C)c1c(-c2ncnn3cccc23)[nH]c2ccc(C3CCN(CC(=O)N(C)C)CC3)cc12 [Example 424] , pIC50 value = 6.00 to 7.00

// assay human TLR8 (Homo sapiens), entry CCc1c(-c2c[nH]c3ncccc23)[nH]c2ccc(C3CCNCC3)cc12 [Example 243] , pIC50 value = > 7.00

// assay human TLR8 (Homo sapiens), entry Cc1cc(-c2[nH]c3ccc(C4CCN(CCS(C)(=O)=O)CC4)cc3c2C(C)C)cn2nncc12 [Example 785] , pIC50 value = 6.00 to 7.00

// assay human TLR8 (Homo sapiens), entry CC(C)c1c(-c2ccnc3[nH]ncc23)[nH]c2ccc(C3CCNCC3)c(F)c12 [Example 259] , pIC50 value = > 7.00

// assay human TLR8 (Homo sapiens), entry Cc1cc2nnnn2cc1-c1[nH]c2ccc(C3CCN(Cc4ncn(C)n4)CC3)cc2c1C(C)C [Example 886] , pIC50 value = > 7.00

// assay human TLR8 (Homo sapiens), entry CNCCN1CCC(c2ccc3[nH]c(-c4ccc5nccnc5c4)c(C)c3c2)CC1 [Example 658] , pIC50 value = 4.30 to 6.00

// assay human TLR8 (Homo sapiens), entry Cc1cc(-c2[nH]c3ccc(C4CCN(C5COC5)CC4)cc3c2C(C)C)cn2nnnc12 [Example 741] , pIC50 value = > 7.00

// assay human TLR8 (Homo sapiens), entry COc1cc(-c2[nH]c3ccc(C4CCN(C5CCOCC5)CC4)cc3c2C(C)C)cn2ccnc12 [Example 706] , pIC50 value = > 7.00

// assay human TLR8 (Homo sapiens), entry COc1cc(-c2[nH]c3ccc(C4CCN(CCS(C)(=O)=O)CC4)cc3c2C(C)C)cn2ccnc12 [Example 801] , pIC50 value = > 7.00

// assay human TLR8 (Homo sapiens), entry Cc1cc(-c2[nH]c3ccc(C4CCNCC4)cc3c2C(C)C)cc2ncc(O)nc12 [Example 87] , pIC50 value = > 7.00

The reported measurements were obtained from patent US11739098B2.
